Assay System: Murine recombinant poly(ADP-ribose)-polymerase 2 (Mus musculus)
Construct: made in house
Sequence (O88554 whole entry): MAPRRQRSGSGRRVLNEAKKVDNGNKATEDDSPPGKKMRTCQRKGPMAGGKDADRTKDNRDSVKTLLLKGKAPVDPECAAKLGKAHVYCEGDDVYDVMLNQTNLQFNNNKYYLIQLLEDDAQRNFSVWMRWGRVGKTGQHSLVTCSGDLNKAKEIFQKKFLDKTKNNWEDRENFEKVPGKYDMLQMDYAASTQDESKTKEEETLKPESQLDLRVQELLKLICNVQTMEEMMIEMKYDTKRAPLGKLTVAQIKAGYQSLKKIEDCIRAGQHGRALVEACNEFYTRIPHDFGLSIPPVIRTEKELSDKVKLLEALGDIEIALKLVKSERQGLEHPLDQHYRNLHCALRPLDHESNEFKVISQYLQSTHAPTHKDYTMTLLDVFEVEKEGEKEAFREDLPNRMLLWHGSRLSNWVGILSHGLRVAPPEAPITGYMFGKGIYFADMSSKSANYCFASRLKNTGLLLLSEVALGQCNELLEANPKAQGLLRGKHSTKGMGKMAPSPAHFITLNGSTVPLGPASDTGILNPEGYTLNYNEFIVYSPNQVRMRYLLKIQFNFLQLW
Measurement Notes: autopoly(ADP-ribosyl)ation of PARP-2, [32P]NAD+ incorporation
Type: biochemical
Assay Conditions: in the presence of 1 mM compound; read-out: Residual PARP-2 activity (converted)
Observation Type: remaining activity at 1000 µM (%)

1 = Nc1ccn(C2CNCC(COP(=O)(O)OP(=O)(O)OCC3OC(n4cnc5c(N)ncnc54)C(O)C3O)O2)c(=O)n1 (stereo not shown)
2 = Nc1ncnc2c1ncn2C1OC(COP(=O)(O)OP(=O)(O)NCC2CNCC(n3ccc(=O)[nH]c3=O)O2)C(O)C1O (stereo not shown) [Compound 10U]
Kindly compare 1 with 2 and tell me which has the lower remaining activity at 1000 µM figure. To answer, give the label that identifies your chosen option. 2
